# System: KRAS G12D (amino acids 1-169) (Homo sapiens, UniProt P01116, G12D)
# Sequence (P01116 with tags, fused parts or gaps isoform P01116-2 G12D): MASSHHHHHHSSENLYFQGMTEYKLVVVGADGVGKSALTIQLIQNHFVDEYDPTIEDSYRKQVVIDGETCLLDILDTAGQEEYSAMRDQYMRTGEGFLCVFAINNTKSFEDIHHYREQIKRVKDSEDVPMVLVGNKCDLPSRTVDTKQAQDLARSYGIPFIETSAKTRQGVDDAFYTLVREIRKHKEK
# Procedure Details: SOS-catalyzed nucleotide exchange assay (Procedure B, BODIPY FL GDP displacement), KRAS G12D
# Assay Setup: read-out: KRAS G12D GNE IC50
Reported Property: log10 of IC50 (log10 of the value in nM)
# log10 transformed; quantity=IC50; unit=nM

The following compounds have reported results that may help.
Fill in log10 of IC50 for record `Cc1cc2[nH]ncc2c(-c2nccc3c2sc2nc(OC[C@@]45CCCN4C[C@H](F)C5)nc(N4C[C@H](O)C[C@H]4C)c23)c1C(F)(F)F`
3.34

Fill in log10 of IC50 for record `C[C@@]1(O)COCCN(c2nc(OC[C@@]34CCCN3C[C@H](F)C4)nc3sc4c(-c5c(-c6ccco6)c(Cl)cc6[nH]ncc56)nncc4c23)C1`
0.63

Fill in log10 of IC50 for record `C#Cc1cccc2cccc(-c3nncc4c3sc3nc(OC[C@@]56CCCN5C[C@H](F)C6)nc(N5CCOC[C@@](C)(O)C5)c34)c12`
2.51

Fill in log10 of IC50 for record COC1c2c(cc3[nH]ncc3c2-c2nccc3c2sc2nc(OC[C@@]45CCCN4C[C@H](F)C5)nc(N4CCOC[C@@](C)(O)C4)c23)CC1(F)F (stereo partly drawn)
1.58

Fill in log10 of IC50 for record `Cc1cc2[nH]nc(I)c2c(-c2nccc3c2sc2nc(OC[C@@]45CCCN4C[C@H](F)C5)nc(N4CCOC[C@@](C)(O)C4)c23)c1C(F)(F)F`
3.17

Moving on to the next compound.
Fill in log10 of IC50 for record `CC(=O)c1c(C(F)(F)F)cc2[nH]ncc2c1-c1nccc2c1sc1nc(OC[C@@]34CCCN3C[C@H](F)C4)nc(N3CCOC[C@@](C)(O)C3)c12`
1.86

----------
# System: KRAS-G12D (Homo sapiens, UniProt P01116, G12D)
# Sequence (P01116 with tags, fused parts or gaps isoform P01116-2 G12D): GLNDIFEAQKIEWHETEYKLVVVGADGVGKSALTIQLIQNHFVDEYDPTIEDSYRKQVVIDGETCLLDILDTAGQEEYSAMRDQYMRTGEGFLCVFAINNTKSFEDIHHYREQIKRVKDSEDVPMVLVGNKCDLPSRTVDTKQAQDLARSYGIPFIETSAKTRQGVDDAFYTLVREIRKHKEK
# Procedure Details: SOS-catalyzed nucleotide exchange assay (Procedure A, TR-FRET), KRAS-G12D
# Type: biochemical
# Assay Setup: nucleotide exchange, read-out: KRAS G12D GNE IC50
With a cut-off of 40 nM, any IC50 strictly below it is called t; any IC50 meeting it or above is called f.

Example results:
Regarding `Cc1cc2[nH]ncc2c(-c2nccc3c2sc2nc(OC[C@@]45CCCN4C[C@H](F)C5)nc(N4CCOC[C@@](C)(O)C4)c23)c1Cl` , kindly confirm whether its IC50 is beneath 40 nM.
f

Regarding `C[C@@]1(O)COCCN(c2nc(OC[C@@]34CCCN3C[C@H](F)C4)nc3sc4c(-c5cc(O)cc(Cl)c5C5CC5)nccc4c23)C1` , kindly confirm whether its IC50 is beneath 40 nM.
t

Regarding `Cc1cc2[nH]ncc2c(-c2nccc3c2sc2nc(OC[C@@]45CCCN4C[C@H](F)C5)nc(NC4(CO)COC4)c23)c1C(F)(F)F` , kindly confirm whether its IC50 is beneath 40 nM.
f

Regarding `C[C@@]1(O)COCCN(c2nc(OC[C@]3(CN4CC5(CC(F)C5)C4)CC3(F)F)nc3sc4c(-c5c(C6CC6)c(Cl)cc6[nH]ncc56)nccc4c23)C1` , kindly confirm whether its IC50 is beneath 40 nM.
t

Regarding `C[C@@]1(O)COCCN(c2nc(OC[C@@]34CCCN3C[C@H](F)C4)nc3sc4c(-c5c(C6(F)CC6)c(C(F)(F)F)cc6[nH]ncc56)nccc4c23)C1` , kindly confirm whether its IC50 is beneath 40 nM.
t

Further cases:
Regarding CN(C)C1CC(F)(F)C2C[C@]12COc1nc(N2CCOC[C@@](C)(O)C2)c2c(n1)sc1c(-c3c(C4(F)CC4)c(Cl)cc4[nH]ncc34)nccc12 (some centres unmarked) [Ex-271] , kindly confirm whether its IC50 is beneath 40 nM.
f

Regarding `Cc1c(Cl)cccc1-c1nccc2c1sc1nc(OC[C@@]34CCCN3C[C@H](F)C4)nc(N3CCOC[C@@](C)(O)C3)c12` , kindly confirm whether its IC50 is beneath 40 nM.
f

Regarding C[C@@]1(O)COCCN(c2nc(OC[C@@]34CCCN3C[C@H](F)C4)nc3c(Cl)c4c(-c5c(C6CC6)c(Cl)cc6[nH]ncc56)nccn4c23)C1 (single isomer, unassigned) , kindly confirm whether its IC50 is beneath 40 nM.
t

Regarding `C=C1CN2CC(=C)CC2(COc2nc(N3CCOC[C@@](C)(O)C3)c3c(n2)sc2c(-c4c(C5CC5)c(Cl)cc5[nH]ncc45)nccc23)C1` , kindly confirm whether its IC50 is beneath 40 nM.
t

Regarding `C=C1CCCc2cc3[nH]ncc3c(-c3nccc4c3sc3nc(OC[C@@]56CCCN5C[C@H](F)C6)nc(N5CCOC[C@@](C)(O)C5)c34)c21` , kindly confirm whether its IC50 is beneath 40 nM.
t

Regarding `Cc1cc2[nH]ncc2c(-c2nccc3c2sc2nc(OC[C@@]45CCCN4C[C@H](F)C5)nc(N4CCC[C@]5(CCO5)C4)c23)c1C(F)(F)F` , kindly confirm whether its IC50 is beneath 40 nM.
f

Regarding `C[C@@]1(O)COCCN(c2nc(OC[C@@]34CCCN3C[C@H](F)C4)nc3sc4c(-c5c(C6(F)CC6)c(C(F)(F)F)cc6[nH]ncc56)nncc4c23)C1` , kindly confirm whether its IC50 is beneath 40 nM.
t

Regarding `CC1=CCc2cc3[nH]ncc3c(-c3nccc4c3sc3nc(OC[C@@]56CCCN5C[C@H](F)C6)nc(N5CCOC[C@@](C)(O)C5)c34)c21` , kindly confirm whether its IC50 is beneath 40 nM.
t

Regarding `Cc1cc2[nH]ncc2c(-c2nccc3c2sc2nc(OC[C@]4(CN(C)C)CC4(F)F)nc(N4CCOC[C@@](C)(O)C4)c23)c1C(F)(F)F` , kindly confirm whether its IC50 is beneath 40 nM.
t
